We begin with a simple list: items and their reported selectivity ratio.
assay: Selectivity index, ratio of CC50 for mock infected human MT4 cells to EC50 for HIV2 ROD infected in human MT4 cells; format: toxicity, cell-based; details: read-out: Ratio CC50/EC50

See these solved cases before continuing.
Cc1cc(C#N)cc(C)c1Oc1cc(Nc2ccc(Cl)cc2)nc(Nc2cccc(C#N)c2)n1 | < 1
Cc1cc(C)c(Oc2cc(Nc3ccc(Cl)cc3)nc(Nc3ccc(C#N)cc3)n2)c(C)c1 | < 1
O=c1[nH]cnc2c1ncn2[C@H]1CC[C@@H](CO)O1 | > 3

[in] Could you tell me which selectivity ratio is on file for Cc1ccc(Nc2nc(Nc3cccc(C)c3)cc(Oc3c(C)cc(C)cc3C)n2)cc1 ?
[out] < 1

[in] Could you tell me which selectivity ratio is on file for Cc1ccc(Nc2nc(Nc3ccc(C#N)cc3)cc(Oc3c(C)cc(C#N)cc3C)n2)cc1 ?
[out] < 1

[in] Could you tell me which selectivity ratio is on file for Cc1cn([C@H]2C[C@H](N=[N+]=[N-])[C@@H](CO)O2)c(=O)[nH]c1=O ?
[out] > 925

[in] Could you tell me which selectivity ratio is on file for Cc1ccc(Nc2nc(Nc3ccc(C#N)cc3)cc(Oc3c(C)cc(C)cc3C)n2)cc1 ?
[out] < 1

[in] Could you tell me which selectivity ratio is on file for Cc1ccc(Nc2nc(Nc3ccc(Cl)cc3)cc(Oc3c(C)cc(C)cc3C)n2)cc1 ?
[out] < 1

[in] Could you tell me which selectivity ratio is on file for Cc1ccc(Nc2nc(Nc3ccc(Cl)cc3)cc(Oc3c(C)cc(C#N)cc3C)n2)cc1 ?
[out] 1

[in] Could you tell me which selectivity ratio is on file for Cc1cc(C#N)cc(C)c1Oc1cc(Nc2ccc(C#N)cc2)nc(Nc2cccc(C#N)c2)n1 ?
[out] < 1

[in] Could you tell me which selectivity ratio is on file for Cc1cccc(Nc2cc(Oc3c(C)cc(C#N)cc3C)nc(Nc3ccc(C#N)cc3)n2)c1 ?
[out] < 1

[in] Could you tell me which selectivity ratio is on file for Nc1ccn([C@H]2CS[C@@H](CO)O2)c(=O)n1 ?
[out] > 9

[in] Could you tell me which selectivity ratio is on file for Cc1cc(C#N)cc(C)c1Oc1cc(Nc2ccc(C#N)cc2)nc(Nc2ccc(C#N)cc2)n1 ?
[out] < 1

[in] Could you tell me which selectivity ratio is on file for Cc1cc(C)c(Oc2cc(Nc3ccc(C#N)cc3)nc(Nc3cccc(C#N)c3)n2)c(C)c1 ?
[out] < 1

These measurements were taken from ChEMBL document CHEMBL3784991.
